Data provenance: ChEMBL document CHEMBL4665624

Please provide measured inhibition of growth at 10 µM for the entries that follow.
System: SK-OV-3
Experiment: Antitumor activity against human SK-OV-3 cells assessed as cell growth inhibition at 10 uM incubated for 48 hrs by sulforhodamine B assay
Assay type: functional
Settings: read-out: GI

**Query** Bench note: what inhibition of growth at 10 µM did O=Cc1ccc(-c2nc3c([nH]2)-c2cccc4cccc-3c24)cc1 show?
**Result** < 10%

**Query** Please look up its inhibition of growth at 10 µM: CCN(CC)c1ccc(-c2nc3c4ccccc4c4ccccc4c3o2)c(O)c1
**Result** < 10%

**Query** GET /values?readout=inhibition of growth at 10 µM&item= c1cc2ccc3ccc(-c4nc5c6ccccc6c6ccccc6c5[nH]4)c4ccc(c1)c2c34
**Result** < 10%

**Query** For the molecule shown here, Oc1ccccc1-c1nc2c3ccccc3c3ccccc3c2[nH]1 , give the reported inhibition of growth at 10 µM.
**Result** < 10%

**Query** // returns reported inhibition of growth at 10 µM for input O=C1NC(=O)/C(=C/c2ccc(-c3nc4c5ccccc5c5ccccc5c4[nH]3)cc2)S1
**Result** < 10%

**Query** Tell me the measured inhibition of growth at 10 µM of CCN(CC)c1ccc(-c2nc3c4ccccc4c4ccccc4c3[nH]2)c(O)c1 , please.
**Result** 10.1%

**Query** Query (molecule): O=c1[nH]cc(F)c(=O)[nH]1 ; field requested: inhibition of growth at 10 µM
**Result** 77.5%

**Query** Query (molecule): O=C1c2ccccc2C(=O)c2c1ccc1[nH]c(-c3ccc(-c4nc5c6ccccc6c6ccccc6c5[nH]4)cc3)nc21 ; field requested: inhibition of growth at 10 µM
**Result** < 10%

**Query** // returns reported inhibition of growth at 10 µM for input Oc1ccccc1-c1nc2c3ccccc3c3ccccc3c2o1
**Result** < 10%
